Some compounds, each annotated with its measured pEC50.
- experimentalSystem: human muscarinic acetylcholine M1 receptor (Homo sapiens, UniProt P11229)
- Construct: expressed in transfected cells; host or cells: CHO-K1
- Sequence (P11229 whole entry): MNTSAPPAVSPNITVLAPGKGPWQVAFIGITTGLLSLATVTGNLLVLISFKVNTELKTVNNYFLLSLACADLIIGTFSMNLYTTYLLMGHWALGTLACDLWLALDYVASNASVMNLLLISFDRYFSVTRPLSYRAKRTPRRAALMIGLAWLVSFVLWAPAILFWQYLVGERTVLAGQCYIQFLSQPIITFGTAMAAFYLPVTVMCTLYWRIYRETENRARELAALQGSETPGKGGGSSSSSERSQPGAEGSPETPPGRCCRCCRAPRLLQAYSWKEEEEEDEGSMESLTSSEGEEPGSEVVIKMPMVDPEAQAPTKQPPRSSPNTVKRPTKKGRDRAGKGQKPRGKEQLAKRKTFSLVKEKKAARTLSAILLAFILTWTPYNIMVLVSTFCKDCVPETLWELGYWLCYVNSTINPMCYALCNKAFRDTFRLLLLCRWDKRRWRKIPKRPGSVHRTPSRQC
- assayExplanation: M1 PAM Assay (IP-One HTRF, IP1 accumulation in M1-CHO cells)
- Format: cell-based
- experimentalConditions: CHO-K1 cells stably transfected with human M1 receptor; compounds added with EC20 of acetylcholine (25 nM), 30 min; intracellular IP1 by IP-One HTRF; read-out: M1 PAM EC50
- Description: Then diluted compounds (0.6% DMSO final concentration) are added together with EC20 of acetylcholine and incubated with the cells for 30 min at 37° C., 5% CO2. CHO-K1 cells stably transfected with human muscarinic acetylcholine M1 receptor are cultured in Ham's F12 medium containing 10% heat inactivated fetal calf serum, 2 mM L-glutamine and Penicillin-Streptomycin grown in a humidified atmosphere at 5% CO2/95% air at 37° C.
pEC50: −log10 of the molar value.

>  <compound>
Cc1nc2c3c(nn2c(C)c1Cl)CN(C(=O)c1ccc(C#N)cc1OCCN(C)C)C3 [Example 14]

>  <pEC50>
6.00 to 6.70

$$$$
>  <compound>
Cc1nc2c3c(nn2c(C)c1Cl)CN(C(=O)c1ccc(F)cc1OC1CN(CCO)C1)C3 [Example 30]

>  <pEC50>
6.00 to 6.70

$$$$
>  <compound>
Cc1nc2c3c(nn2c(C)c1Cl)CN(C(=O)c1ccncc1OC1CCN(C)CC1)C3 [Example 3]

>  <pEC50>
5.52 to 6.00

$$$$
>  <compound>
Cc1nc2c3c(nn2c(C)c1Cl)CN(C(=O)c1ccccc1C(C)N1CCN(C)CC1)C3 (stereo not shown) [Example 7]

>  <pEC50>
5.52 to 6.00

$$$$
>  <compound>
O=C(c1ccc(F)cc1OC1CCN(CCF)CC1)N1Cc2nn3cc(Cl)cnc3c2C1 [Example 34]

>  <pEC50>
6.00 to 6.70

$$$$
>  <compound>
Cc1nc2c3c(nn2c(C)c1Cl)CN(C(=O)c1ccccc1O[C@H]1CN(C)C[C@@H]1O)C3 (racemic) [Example 13]

>  <pEC50>
5.52 to 6.00

$$$$
>  <compound>
Cc1nc2c3c(nn2c(C)c1Cl)CN(C(=O)c1ccc(F)cc1OCCN1CC[C@@H](F)C1)C3 [Example 62]

>  <pEC50>
6.00 to 6.70

$$$$
>  <compound>
Cc1nc2c3c(nn2c(C)c1Cl)CN(C(=O)c1ccc(F)cc1OC1CCC(F)(F)CC1)C3 [Example 47]

>  <pEC50>
5.52 to 6.00

$$$$
>  <compound>
Cc1nc2c3c(nn2c(C)c1Cl)CN(C(=O)c1ccc(F)cc1O[C@H]1CCNC[C@@H]1F)C3 (racemic) [Example 1]

>  <pEC50>
> 6.70

$$$$
>  <compound>
Cc1nc2c3c(nn2c(C)c1Cl)CN(C(=O)c1ccc(F)cc1OCCN1CCOCC1)C3 [Example 15]

>  <pEC50>
5.52 to 6.00

$$$$
>  <compound>
Cc1nc2c3c(nn2c(C)c1Cl)CN(C(=O)c1ccc(F)cc1O[C@H]1COC[C@@H]1O)C3 (racemic) [Example 26]

>  <pEC50>
5.52 to 6.00

$$$$
>  <compound>
CCc1nc2c3c(nn2c(C)c1Cl)CN(C(=O)c1ccccc1O[C@@H]1CCC[C@H]1O)C3 [Example 9]

>  <pEC50>
5.52 to 6.00

$$$$
>  <compound>
Cc1nc2c3c(nn2c(C)c1Cl)CN(C(=O)c1ccc(F)cc1OCc1cccnc1)C3 [Example 19]

>  <pEC50>
5.52 to 6.00

$$$$
>  <compound>
CN1CCC(Oc2cc(F)ccc2C(=O)N2Cc3nn4cc(Cl)cnc4c3C2)CC1 [Example 12]

>  <pEC50>
6.00 to 6.70

$$$$
>  <compound>
Cc1nc2c3c(nn2c(C)c1Cl)CN(C(=O)c1ccc(F)cc1OC[C@H]1C[C@H](F)CN1)C3 [Example 55]

>  <pEC50>
6.00 to 6.70

$$$$
>  <compound>
Cc1nc2c3c(nn2c(C)c1Cl)CN(C(=O)c1ccc(F)cc1OC[C@H]1C[C@@H](F)CN1)C3 [Example 60]

>  <pEC50>
> 6.70

$$$$

###

- experimentalSystem: human muscarinic acetylcholine M1 receptor (Homo sapiens, UniProt P11229)
- Construct: expressed in transfected cells; host or cells: CHO-K1
- assayExplanation: M1 PAM Assay (IP-One HTRF, IP1 accumulation in M1-CHO cells)
- Assay type: cell-based
propertyMeasured: EC50

>  <molecule>
CN1[C@@H]2CC[C@H]1C[C@@H](Oc1cc(F)ccc1C(=O)N1Cc3nn4cc(Cl)cnc4c3C1)C2

>  <measValue>
< 200 nM

$$$$
>  <molecule>
Cc1nc2c3c(nn2c(C)c1Cl)CN(C(=O)c1ccc(F)cc1O[C@H]1C[C@H]2CC[C@@H](C1)N2CCO)C3

>  <measValue>
< 200 nM

$$$$
>  <molecule>
CN1[C@@H]2CC[C@H]1C[C@@H](Oc1cc(F)ccc1C(=O)N1Cc3nn4cc(C5CC5)cnc4c3C1)C2

>  <measValue>
< 200 nM

$$$$
>  <molecule>
CC(O)CN1[C@@H]2CC[C@H]1C[C@@H](Oc1cc(F)ccc1C(=O)N1Cc3nn4cc(Cl)cnc4c3C1)C2 (stereo partly drawn)

>  <measValue>
200 to 1000 nM

$$$$
>  <molecule>
COCCN1[C@@H]2CC[C@H]1C[C@@H](Oc1cc(F)ccc1C(=O)N1Cc3nn4cc(Cl)cnc4c3C1)C2

>  <measValue>
200 to 1000 nM

$$$$
>  <molecule>
O=C(c1ccc(F)cc1O[C@H]1C[C@H]2CC[C@@H](C1)N2CCF)N1Cc2nn3cc(Cl)cnc3c2C1 (single isomer, unassigned)

>  <measValue>
< 200 nM

$$$$
>  <molecule>
N#CCN1[C@@H]2CC[C@H]1C[C@@H](Oc1cc(F)ccc1C(=O)N1Cc3nn4cc(Cl)cnc4c3C1)C2

>  <measValue>
200 to 1000 nM

$$$$
>  <molecule>
Cc1nc2c3c(nn2c(C)c1Cl)CN(C(=O)c1ccc(F)cc1O[C@H]1C[C@H]2CC[C@@H](C1)N2CCF)C3

>  <measValue>
< 200 nM

$$$$
>  <molecule>
Cc1nc2c3c(nn2c(C)c1Cl)CN(C(=O)c1ccc(F)cc1OC1CC2C[C@H](O)C(C1)N2C)C3 (mixture of isomers)

>  <measValue>
< 200 nM

$$$$
>  <molecule>
O=C(c1ccc(F)cc1O[C@H]1C[C@H]2CC[C@@H](C1)N2CC1CC1)N1Cc2nn3cc(Cl)cnc3c2C1

>  <measValue>
< 200 nM

$$$$
>  <molecule>
CCCN1[C@@H]2CC[C@H]1C[C@@H](Oc1cc(F)ccc1C(=O)N1Cc3nn4cc(Cl)cnc4c3C1)C2

>  <measValue>
< 200 nM

$$$$
>  <molecule>
CN1C2CC(Oc3cc(F)ccc3C(=O)N3Cc4nn5cc(Cl)cnc5c4C3)CC1[C@@H](O)C2 (mixture of isomers)

>  <measValue>
< 200 nM

$$$$

###

- experimentalSystem: human muscarinic acetylcholine M1 receptor (Homo sapiens)
- Construct: expressed in transfected cells; host or cells: CHO-K1
- assayExplanation: M1 PAM Assay (IP-One HTRF, IP1 accumulation in M1-CHO cells)
- Assay type: cell-based
- experimentalConditions: CHO-K1 cells stably transfected with human M1 receptor; compounds added with EC20 of acetylcholine (25 nM), 30 min; intracellular IP1 by IP-One HTRF; read-out: M1 PAM EC50
- Procedure: Then diluted compounds (0.6% DMSO final concentration) are added together with EC20 of acetylcholine and incubated with the cells for 30 min at 37° C., 5% CO2. CHO-K1 cells stably transfected with human muscarinic acetylcholine M1 receptor are cultured in Ham's F12 medium containing 10% heat inactivated fetal calf serum, 2 mM L-glutamine and Penicillin-Streptomycin grown in a humidified atmosphere at 5% CO2/95% air at 37° C.
pEC50: −log10 of the molar value. Where a name gives a salt, the structure may show the parent alone.
Measured pEC50 accompanies every entry in the list below.

>  <molecule>
Cc1nc2c3c(nn2c(C)c1Cl)CN(C(=O)c1ccc(F)cc1O[C@H]1CCNC[C@@H]1O)C3 (single isomer, unassigned) [Example 70, hydrochloride]

>  <pEC50>
6.00 to 6.70

$$$$
>  <molecule>
O=C(c1ccc(F)cc1OC1CCN(CCO)CC1)N1Cc2nn3cc(Cl)cnc3c2C1

>  <pEC50>
6.00 to 6.70

$$$$
>  <molecule>
Cc1nc2c3c(nn2c(C)c1Cl)CN(C(=O)c1ccccc1C(C)N1CCNCC1)C3 (centres unmarked)

>  <pEC50>
5.52 to 6.00

$$$$
>  <molecule>
Cc1nc2c3c(nn2c(C)c1Cl)CN(C(=O)c1ccc(F)cc1OCCN1CCCC1)C3

>  <pEC50>
> 6.70

$$$$
>  <molecule>
Cc1nc2c3c(nn2c(C)c1Cl)CN(C(=O)c1ccc(F)cc1OCCn1cncn1)C3

>  <pEC50>
6.00 to 6.70

$$$$
